Every entry's value here was drawn from patent US20250186597A1.

Biological target: T1, IL-18R on HEK-Blue IL18R reporter cells (InvivoGen, #hkb-hmi118) (UniProt Q13478 19-541; O95256 20-599, limits assumed)
T1 sequence (looked up) 1: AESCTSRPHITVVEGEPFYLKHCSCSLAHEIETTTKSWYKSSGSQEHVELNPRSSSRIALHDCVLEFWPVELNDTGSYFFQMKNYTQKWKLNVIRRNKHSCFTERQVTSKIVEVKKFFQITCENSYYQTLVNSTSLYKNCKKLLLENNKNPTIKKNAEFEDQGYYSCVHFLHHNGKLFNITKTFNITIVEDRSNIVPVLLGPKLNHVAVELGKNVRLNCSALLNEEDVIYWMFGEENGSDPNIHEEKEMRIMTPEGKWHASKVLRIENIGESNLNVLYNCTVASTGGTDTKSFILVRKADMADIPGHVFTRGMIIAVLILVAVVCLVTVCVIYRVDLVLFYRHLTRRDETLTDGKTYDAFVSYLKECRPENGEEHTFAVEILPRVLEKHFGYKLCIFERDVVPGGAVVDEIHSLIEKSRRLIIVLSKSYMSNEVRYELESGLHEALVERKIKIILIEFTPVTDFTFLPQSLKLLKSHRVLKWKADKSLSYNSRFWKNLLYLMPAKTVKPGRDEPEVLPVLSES
T1 sequence (looked up) 2: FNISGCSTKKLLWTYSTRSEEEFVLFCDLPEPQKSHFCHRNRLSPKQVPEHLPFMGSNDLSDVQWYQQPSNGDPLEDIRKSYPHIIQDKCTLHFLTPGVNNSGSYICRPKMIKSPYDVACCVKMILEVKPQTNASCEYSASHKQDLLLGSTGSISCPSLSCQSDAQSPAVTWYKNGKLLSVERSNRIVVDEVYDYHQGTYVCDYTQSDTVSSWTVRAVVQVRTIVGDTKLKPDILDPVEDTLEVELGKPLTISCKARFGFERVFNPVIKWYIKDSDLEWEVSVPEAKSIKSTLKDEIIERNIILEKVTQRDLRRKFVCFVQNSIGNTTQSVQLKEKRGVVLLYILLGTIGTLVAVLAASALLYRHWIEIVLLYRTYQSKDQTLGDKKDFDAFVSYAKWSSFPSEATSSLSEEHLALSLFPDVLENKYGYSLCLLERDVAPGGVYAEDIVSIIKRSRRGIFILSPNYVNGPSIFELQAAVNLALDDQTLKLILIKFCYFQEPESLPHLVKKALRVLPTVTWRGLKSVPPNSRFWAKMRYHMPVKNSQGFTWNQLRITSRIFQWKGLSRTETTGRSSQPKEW
Test: cell-based or functional assay
# label = fulfilled if EC50, HEK-Blue IL18R reporter assay < 0.7 pM else not fulfilled

EC50, HEK-Blue IL18R reporter assay strictly < 0.7 pM for this binder? IL-18 polypeptide C151 (V11I, D35A, C38A, K53A, C76A, C127A) (ligand) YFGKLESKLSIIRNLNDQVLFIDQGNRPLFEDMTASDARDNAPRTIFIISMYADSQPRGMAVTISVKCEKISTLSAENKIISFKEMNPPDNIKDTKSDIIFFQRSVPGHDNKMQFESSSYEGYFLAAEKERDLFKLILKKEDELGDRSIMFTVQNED
not fulfilled

EC50, HEK-Blue IL18R reporter assay strictly < 0.7 pM for this binder? IL-18 polypeptide C167 (V11I, C38A, C76A, S105I, C127A) (ligand) YFGKLESKLSIIRNLNDQVLFIDQGNRPLFEDMTDSDARDNAPRTIFIISMYKDSQPRGMAVTISVKCEKISTLSAENKIISFKEMNPPDNIKDTKSDIIFFQRIVPGHDNKMQFESSSYEGYFLAAEKERDLFKLILKKEDELGDRSIMFTVQNED
not fulfilled

EC50, HEK-Blue IL18R reporter assay strictly < 0.7 pM for this binder? IL-18 polypeptide C149 (V11I, E31A, C38A, K53A, C76A, C127A) (ligand) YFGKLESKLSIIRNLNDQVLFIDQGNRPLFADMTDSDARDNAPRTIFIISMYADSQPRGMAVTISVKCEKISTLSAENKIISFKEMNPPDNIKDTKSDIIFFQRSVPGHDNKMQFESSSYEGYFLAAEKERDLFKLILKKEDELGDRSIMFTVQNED
not fulfilled
